experimentalTarget: 5-hydroxytryptamine receptor 2A (Homo sapiens)
experimentDescription: 5-hydroxytryptamine receptor 2A (HTR2A) small molecule antagonists, cell-based qHTS assay (AID 1963586); note: nearly all actives have a fitted effect of over 45% in size
particulars: HTR2A-CHO cells, DOI-induced calcium flux, fluorescence; series mostly up to 61.5 µM
Results filed as inconclusive are left out. The source made the active and inactive calls. Calls come from the whole dose curve.
Outcomes: Y = active, N = inactive

| compound | category |
| --- | --- |
| CCCCCCCCCCCC[N+](C)(C)CCCCCCCCCCCC | N |
| N#Cc1ccc(C(=O)O)cc1 | N |
| OCC(O)[C@@H](O)[C@H](O)[C@H](O)CO[C@H]1O[C@H](CO)[C@@H](O)[C@H](O)[C@H]1O (some centres not stated) | N |
| Nc1ccccc1S(=O)(=O)c1ccccc1 | N |
| CCCCOC(=O)/C=C\C(=O)OCCCC | N |
| COc1c(N2C[C@@H]3CCCN[C@@H]3C2)c(F)cc2c(=O)c(C(=O)O)cn(C3CC3)c12 | N |
| CN(C)CCn1nnnc1SCC1=C(C(=O)O)N2C(=O)[C@@H](NC(=O)Cc3csc(N)n3)[C@H]2SC1 | N |
| CC/C(=C\C(=N/O)C(N)=O)C(C)[N+](=O)[O-] (configuration not stated) | N |
| O=C(Nc1ccccc1)c1ccccc1O | N |
| CCCCCCC(=O)OCC | N |
| CN1CCN(C2=Nc3cc(F)ccc3Cc3ccccc32)CC1 | Y |
| C=Cc1ccccc1 | N |
